# measurement_setup: 313.15 K; 102 kPa; Liquid; Concentric cylinders viscometry
I'd appreciate it if you could supply viscosity values for the items below.
Answers are plain numbers, in mPa·s.

Some entries whose results are on file:
1. CCC1CCCCC1    0.649
2. CCCCCCCCCCCCCCCC    2.23
3. CCCCCCCCCCCC    1.06

Then there is this compound:
For record "CC1CCCCC1" the listed viscosity is 0.572

---

# measurement_setup: 323.15 K; 102 kPa; Liquid; Concentric cylinders viscometry
For each of the compounds below, state its viscosity.
One number for each entry, in mPa·s.

Examples with answers:
1) CCCCCCCCCCCCCCCC [hexadecane]    1.86
2) CC1CCCCC1 [methylcyclohexane]    0.489
3) CCCCCCCCCCCC [dodecane]    0.925

Continue with the compound presented below.
For CCC1CCCCC1 [ethylcyclohexane] the compound record lists viscosity as 0.572

---

# measurement_setup: 323.15 K; 102 kPa; Liquid; Vibrating tube method
I'd be grateful if you could share measured mass density for these entries.
One number for each entry, in kg/m3.

// below: answered molecules
1) CC1CCCCC1    743.13
2) CCCCCCCCCCCC    726.88
3) CCC1CCCCC1    763.6

Then this molecule:
Sure, the documented mass density for "CCCCCCCCCCCCCCCC" is 752.6

---

Exercise: state measured viscosity for each of the molecules provided.
# measurement_setup: 303.15 K; 102 kPa; Liquid; Concentric cylinders viscometry
Numbers only, in mPa·s.

Take a look at these entries with their results.
1. CC1CCCCC1 [methylcyclohexane]    0.633
2. CCCCCCCCCCCC [dodecane]    1.26
3. CCCCCCCCCCCCCCCC [hexadecane]    2.76

Moving on to the next molecule.
So for CCC1CCCCC1 [ethylcyclohexane] , the logged viscosity turned out to be 0.725

---

Assign speed of sound to each entry below.
# measurement_setup: 313.15 K; 102 kPa; Liquid; Single path-length method
Give bare numbers, in m/s.

1) CCCCCCCCCCCC    1221.1
2) CCC1CCCCC1    1208
3) CC1CCCCC1    1149.2

// next entry
What the record says about "CCCCCCCCCCCCCCCC" : speed of sound is 1282.9

---

# measurement_setup: 333.15 K; 102 kPa; Liquid; Vibrating tube method
recorded_endpoint: mass density (kg/m3)
One number for each entry, in kg/m3.

1) CCCCCCCCCCCCCCCC    745.69
2) CCC1CCCCC1    755.36
3) CC1CCCCC1    734.25

Please look at the following compound next.
Short answer for "CCCCCCCCCCCC" : mass density was 719.53

---

# measurement_setup: 293.15 K; 102 kPa; Liquid; Single path-length method
Would you mind telling me the reported speed of sound of each entry?
One number for each entry, in m/s.

Below, 3 compounds whose answers are already recorded.
1. CCCCCCCCCCCC    1297.7
2. CC1CCCCC1    1236.5
3. CCCCCCCCCCCCCCCC    1357.4

Note: attention shifts to another entry.
"CCC1CCCCC1" has a reported speed of sound of 1292.9

---

# measurement_setup: 303.15 K; 102 kPa; Liquid; Vibrating tube method
± gives the expanded uncertainty stated by the source.
Please provide measured mass density for the entries that follow.

Please review the entries below; each comes with its answer.
1. CCCCCCCCCCCCCCCC    766.43 ± 0.32 kg/m3
2. CCC1CCCCC1    779.91 ± 0.2 kg/m3
3. CC1CCCCC1    760.64 ± 0.21 kg/m3

As a next step, examine the compound that follows.
# mass density (compound: "CCCCCCCCCCCC" ) is 741.77 ± 0.7 kg/m3
